test system: APAP-induced nephrotoxicity; test: Serum creatinine and BUN (kidney function) in APAP-induced toxicity animal model; format: in vivo, Sprague-Dawley rats; details: SD-rats, APAP 1,000 mg/kg single oral dose plus antidote single oral dose, mean ± SD, n=5
Metric Name: Creatinine (nephrotoxicity) (mg/dL)

[[record]]
compound = "O=C1C[C@@H](c2ccc(O)cc2)Oc2cc(O)cc(O)c21"
measured_result = 0.32

[[record]]
compound = "CC(=O)N[C@@H](CS)C(=O)O [NAC, N-acetylcysteine, reference compound]"
measured_result = 0.64

[[record]]
compound = "OC[C@@H](O)[C@@H](O)[C@H](O)[C@H](O)CO"
measured_result = 0.56

[[record]]
compound = "OC[C@H]1O[C@H](O[C@]2(CCl)O[C@H](CCl)[C@@H](O)[C@@H]2O)[C@H](O)[C@@H](O)[C@H]1Cl"
measured_result = 0.40

